Measured pIC50, listed per entry.
# target system: CYP2C19 (Homo sapiens, UniProt P33261)
# Sequence (P33261 whole entry): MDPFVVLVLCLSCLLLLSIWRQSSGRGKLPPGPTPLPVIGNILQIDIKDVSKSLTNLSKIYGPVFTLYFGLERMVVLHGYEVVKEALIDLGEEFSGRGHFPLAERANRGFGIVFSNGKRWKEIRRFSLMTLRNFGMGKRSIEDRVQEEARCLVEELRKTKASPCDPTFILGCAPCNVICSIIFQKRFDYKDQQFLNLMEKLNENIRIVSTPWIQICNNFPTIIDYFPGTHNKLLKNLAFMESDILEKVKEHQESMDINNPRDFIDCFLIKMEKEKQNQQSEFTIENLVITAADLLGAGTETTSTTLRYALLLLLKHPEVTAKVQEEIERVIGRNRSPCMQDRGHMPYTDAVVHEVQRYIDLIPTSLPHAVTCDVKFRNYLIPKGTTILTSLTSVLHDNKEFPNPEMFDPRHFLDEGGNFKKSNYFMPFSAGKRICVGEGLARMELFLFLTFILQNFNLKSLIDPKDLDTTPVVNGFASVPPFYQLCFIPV
# test: Cytochrome P450 assay (Gentest Kit), CYP2C19
# reported conditions: human recombinant isoenzyme
pIC50: −log10 of the molar value.

{"compound": "CS(=O)(=O)O.C[C@H](NCc1ccc(OCc2cccc(F)c2)cc1)C(N)=O [Safinamide methanesulfonate]", "target system": "CYP2C19 (Homo sapiens, UniProt P33261)", "reading qualifier": "=", "pIC50": 4.62}
{"compound": "C[C@H](NCc1ccc(OCc2ccccc2F)c(Cc2ccccc2F)c1)C(N)=O [Impurity IId, methanesulfonate]", "target system": "CYP2C19 (Homo sapiens, UniProt P33261)", "reading qualifier": "=", "pIC50": 5.72}
{"compound": "C[C@H](NCc1ccc(OCc2cccc(F)c2)c(Cc2cccc(F)c2)c1)C(N)=O [Impurity IIc, methanesulfonate]", "target system": "CYP2C19 (Homo sapiens, UniProt P33261)", "reading qualifier": "=", "pIC50": 6.38}
{"compound": "CS(=O)(=O)O.C[C@H](NCc1ccc(OCc2ccccc2F)cc1)C(N)=O [Ralfinamide methanesulfonate]", "target system": "CYP2C19 (Homo sapiens, UniProt P33261)", "reading qualifier": "<", "pIC50": 4.40}

====

# target system: CYP2D6 (Homo sapiens)
# Sequence (P10635 whole entry): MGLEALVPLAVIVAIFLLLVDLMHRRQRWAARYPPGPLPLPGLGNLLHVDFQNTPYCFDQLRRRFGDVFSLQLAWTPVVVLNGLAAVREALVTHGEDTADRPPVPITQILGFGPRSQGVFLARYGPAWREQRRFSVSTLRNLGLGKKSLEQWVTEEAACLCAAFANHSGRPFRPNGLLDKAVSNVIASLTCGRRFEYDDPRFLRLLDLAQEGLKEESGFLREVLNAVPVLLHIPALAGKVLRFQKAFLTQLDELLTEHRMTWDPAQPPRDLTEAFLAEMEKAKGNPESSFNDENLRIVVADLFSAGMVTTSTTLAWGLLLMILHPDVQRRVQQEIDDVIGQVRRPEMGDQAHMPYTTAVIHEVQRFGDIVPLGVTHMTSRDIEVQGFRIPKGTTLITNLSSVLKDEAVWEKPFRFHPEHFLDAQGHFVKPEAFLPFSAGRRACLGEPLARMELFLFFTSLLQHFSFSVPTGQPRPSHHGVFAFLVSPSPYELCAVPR
# test: Cytochrome P450 assay (Gentest Kit), CYP2D6
# reported conditions: human recombinant isoenzyme
Measured IC50, listed per entry.

{"molecule": "C[C@H](NCc1ccc(OCc2ccccc2F)c(Cc2ccccc2F)c1)C(N)=O [Impurity IId, methanesulfonate]", "target system": "CYP2D6 (Homo sapiens)", "unit name": "nM", "reading qualifier": "=", "IC50": 920}
{"molecule": "C[C@H](NCc1ccc(OCc2cccc(F)c2)c(Cc2cccc(F)c2)c1)C(N)=O [Impurity IIc, methanesulfonate]", "target system": "CYP2D6 (Homo sapiens)", "unit name": "nM", "reading qualifier": "=", "IC50": 770}
{"molecule": "CS(=O)(=O)O.C[C@H](NCc1ccc(OCc2ccccc2F)cc1)C(N)=O [Ralfinamide methanesulfonate]", "target system": "CYP2D6 (Homo sapiens)", "unit name": "nM", "reading qualifier": ">", "IC50": 40000}
{"molecule": "CS(=O)(=O)O.C[C@H](NCc1ccc(OCc2cccc(F)c2)cc1)C(N)=O [Safinamide methanesulfonate]", "target system": "CYP2D6 (Homo sapiens)", "unit name": "nM", "reading qualifier": ">", "IC50": 40000}
